Recorded values, source patent US20200077648A1.

# MEASUREMENT_DESCRIPTION: Log P measurement by HPLC on reversed phase columns (EEC directive 79/831 Annex V.A8; methods [a], [b], [c])
# Format: physicochemical
# APPLIED_CONDITIONS: reversed phase HPLC column; method [a]: LC-UV, acidic range, 0.1% formic acid in water and acetonitrile as eluent
METRIC_NAME: chromatographic logP

>>> measured("CCN(C)C=Nc1cc(C)c(Oc2ccccc2F)cc1C1CC1 [Example 34]")
1.69

* * *

Listing of recorded LogP by entry.
# MEASUREMENT_DESCRIPTION: Log P measurement by HPLC on reversed phase columns (EEC directive 79/831 Annex V.A8; methods [a], [b], [c])
# Type: physicochemical
# APPLIED_CONDITIONS: method [a]: LC-UV, acidic range, 0.1% formic acid in water and acetonitrile as eluent
METRIC_NAME: LogP

>>> measured("CCN(C)C=Nc1cc(F)c(Oc2ccccc2F)cc1C")
"1.34^[a]"
>>> measured("CCN(C)C=Nc1cc(OC)c(Oc2ccccc2)cc1C")
"1.42^[a];"
>>> measured("Cc1cc(N=CN(C)C(C)C)c(Cl)cc1Oc1ccccc1F [Example 62]")
"1.61^[a]"
>>> measured("CCN(C)C=Nc1cc(C)c(Oc2ccccc2F)cc1C(F)(F)F")
"1.89^[a]"
>>> measured("Cc1cc(Oc2ccccc2)c(I)cc1N=CN(C)C")
"1.61^[a];"

* * *

This listing pairs compounds with measured LogP.
# MEASUREMENT_DESCRIPTION: Log P measurement by HPLC on reversed phase columns (EEC directive 79/831 Annex V.A8; methods [a], [b], [c])
# Format: physicochemical
# APPLIED_CONDITIONS: method [a]: LC-UV, acidic range, 0.1% formic acid in water and acetonitrile as eluent
# Protocol: If more than one Log P value is available within the same method, all the values are given and separated by “+”. […] Lambda-max-values were determined using UV-spectra from 200 nm to 400 nm and the peak values of the chromatographic signals.
METRIC_NAME: LogP

>>> measured("CCN(C)C=Nc1cc(C)c(Oc2ccccc2Cl)cc1C(F)F")
"1.88^[a]"
>>> measured("CCN(C)C=Nc1cc(C)c(Oc2ccccc2Br)cc1Cl")
"1.80^[a];"
>>> measured("CCN(C)C=Nc1cc(C)c(Oc2ccccc2C2CC2)cc1C")
"2.09^[a]"
>>> measured("CCN(C)C=Nc1cc(C2CC2)c(Oc2ccccc2F)cc1C")
"1.75^[a]"
>>> measured("CCN(C)C=Nc1cc(Br)c(Oc2ccccc2Br)cc1C")
"1.84^[a]"
>>> measured("CCN(C)C=Nc1cc(Cl)c(Oc2cccc(F)c2)cc1C")
"1.75^[a]"
>>> measured("CCN(C)C=Nc1cc(Cl)c(Oc2ccccc2C#N)cc1C")
"1.21^[a]"
>>> measured("CCN(C)C=Nc1cc(Br)c(Oc2ccccc2)cc1C")
"1.58^[a];"

* * *

# MEASUREMENT_DESCRIPTION: Log P measurement by HPLC on reversed phase columns (EEC directive 79/831 Annex V.A8; methods [a], [b], [c])
# Format: physicochemical
# APPLIED_CONDITIONS: method [a]: LC-UV, acidic range, 0.1% formic acid in water and acetonitrile as eluent (linear gradient 10% to 95% acetonitrile)
METRIC_NAME: LogP

>>> measured("CCN(C)C=Nc1cc(C)c(Oc2cccc(F)c2C#N)cc1Cl")
"1.35^[a]"
>>> measured("CCN(C)C=Nc1cc(C)c(Oc2ccccc2C2CC2)cc1Cl")
"1.78^[a]"
>>> measured("CCN(C)C=Nc1cc(C)c(Oc2ccccc2Br)cc1C")
"1.63^[a]"
>>> measured("CCN(C)C=Nc1cc(C)c(Oc2ccccc2SC)cc1C")
"1.55^[a]"
>>> measured("CCN(C)C=Nc1cc(C)c(Oc2ccccc2C2CC2)cc1Br")
"1.84^[a]"
>>> measured("CCc1cc(N=CN(C)CC)c(C)cc1Oc1ccccc1F")
"1.69^[a]"
>>> measured("CCN(C)C=Nc1cc(C(F)F)c(Oc2ccccc2C#N)cc1C")
"1.18^[a]"
>>> measured("CCN(C)C=Nc1cc(C)c(Oc2cccc(F)c2Br)cc1Cl")
"1.66^[a]"
>>> measured("CCN(C)C=Nc1cc(C)c(Oc2ccccc2C(=O)N(C)C)cc1Cl")
"0.97^[a]"
>>> measured("Cc1cc(Oc2ccccc2C#N)c(C)cc1N=CN(C)C(C)C")
"1.48^[a]"
